Consider the following compounds; for each one, report its normalized growth.
run-description: chemical genetic growth profiling, strain panel (AID 1159580);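 further: tested at 20 µM; growth read once vehicle control cultures reached saturation at 30 °C; 1 = growth at the plate median or of vehicle wells; lower values mean less growth of the strain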
measurement-setup: S. cerevisiae deletion strains, growth OD, locus YLL001W, strain dnm1, stronger effect = lower value
In all, about 5,500 compounds went through this assay and about 2,000 (36%) were called active. Not shown: some 18% with an inconclusive outcome. The list shows a part of the results.
Just the number, please.

Form field normalized growth, entry C=C1C(=O)O[C@@H]2C3O[C@]3(C)CC/C=C(\C)CC[C@@H]12 (some centres not stated) : 0.968

Form field normalized growth, entry COc1ccc2c(c1OC)C(=O)OC2[C@H]1c2c(cc3c(c2OC)OCO3)CCN1C (some centres not stated) : 0.973

Form field normalized growth, entry `CO/N=C(\C(=O)N[C@@H]1C(=O)N2C(C(=O)O)=C(COC(C)=O)CS[C@H]12)c1csc(N)n1` : 1.01

Form field normalized growth, entry `COc1ccc(CCN2CCC(Nc3nc4ccccc4n3Cc3ccc(F)cc3)CC2)cc1` : 0.954

Form field normalized growth, entry `CCOC(=O)Nc1nc2ccccc2[nH]1` : 0.987

Form field normalized growth, entry CCCCN1CCCCC1C(=O)Nc1c(C)cccc1C (configuration not stated) : 0.991

Form field normalized growth, entry `COc1cc(-c2coc3cc(OC)c(OC)c(OC)c3c2=O)cc(OC)c1OC` : 0.96

Form field normalized growth, entry `COc1cc2occ(-c3ccccc3)c(=O)c2c(OC)c1C` : 0.98

Form field normalized growth, entry `C[C@H]1COC2=C1C(=O)C(=O)c1c2ccc2c1CCCC2(C)C` : 0.819

Form field normalized growth, entry `CCNC(=O)CC[C@H](N)C(=O)O` : 0.997

Form field normalized growth, entry `COc1cc(OC)c2c(=O)c(-c3ccccc3)coc2c1` : 0.941

Form field normalized growth, entry `CC[C@H](C)C(=O)O[C@H]1C[C@@H](C)C=C2C=C[C@H](C)[C@H](CC[C@@H]3C[C@@H](O)CC(=O)O3)[C@H]21` : 1.02

Form field normalized growth, entry C=CCCCCCCCCCCCC(O)CC(O)COC(C)=O (configuration not stated) (tested in a mixture with another compound) : 0.908

Form field normalized growth, entry CC[C@H](C)C(=O)O[C@H]1CCC=C2C=C[C@H](C)C(CCC3C[C@@H](O)CC(=O)O3)[C@H]21 (some centres not stated) : 1.01

Form field normalized growth, entry COC(=O)C(O)c1ccccc1 (configuration not stated) : 0.985

Form field normalized growth, entry `OCCOCCN1CCN(C2=Nc3ccccc3Sc3ccccc32)CC1` : 0.996

Form field normalized growth, entry NS(=O)(=O)c1cc2c(cc1Cl)NC(C(Cl)Cl)NS2(=O)=O (configuration not stated) : 1.01

Form field normalized growth, entry `CCOC(=O)c1ccc(O)cc1` : 0.989

Form field normalized growth, entry `CCC(C)(C)C(=O)O[C@H]1C[C@@H](C)C=C2C=C[C@H](C)[C@H](CC[C@@H]3C[C@@H](O)CC(=O)O3)[C@H]21` : 1

Form field normalized growth, entry `O=C1NC(=O)C(=O)C(=O)N1` : 0.994

Form field normalized growth, entry O=S1OCC2C(CO1)C1(Cl)C(Cl)=C(Cl)C2(Cl)C1(Cl)Cl (configuration not stated) : 0.99

Form field normalized growth, entry `CC(C)NC[C@H](O)COc1cccc2ccccc12` : 0.98

Form field normalized growth, entry CC(C(=O)O)c1ccc(C(=O)c2cccs2)cc1 (configuration not stated) : 0.995

Form field normalized growth, entry `CC1(C)O[C@H]2[C@H](O)C[C@](O)(C(N)=O)C[C@H]2O1` : 0.999

Form field normalized growth, entry `COC(=O)C[C@H]1C(C)(C)C(=O)[C@@H]2CC3=C(CC[C@]4(C)C3=CC(=O)O[C@H]4c3ccoc3)[C@@]1(C)C2=O` : 1

Form field normalized growth, entry `COc1ccc(-c2coc3cc(OC)cc(OC)c3c2=O)cc1` : 0.976

Form field normalized growth, entry `Clc1cccc(Cl)c1NC1=NCCN1` : 0.933

Form field normalized growth, entry CO/N=C(\C(=O)NC1C(=O)N2C(C(=O)OC(C)OC(C)=O)=C(COC(N)=O)CSC12)c1ccco1 (configuration not stated) : 0.981

Form field normalized growth, entry C#CCCCCCCCCCCCC(=O)CC(O)COC(C)=O (configuration not stated) : 1

Form field normalized growth, entry COC(=O)[C@@H]1OC(=O)[C@H]2O[C@@]23[C@@]1(C)CCC1[C@@]2(C)CCC(=O)C(C)(C)C2C[C@@H](OC(C)=O)[C@]13C (some centres not stated) : 0.992

Form field normalized growth, entry C=C1C(=O)OC2CC1C(OC(C)=O)C/C(C)=C/CC/C(C)=C/CC[C@]2(C)O (some centres not stated) : 0.973

Form field normalized growth, entry `C=C1C(=O)O[C@@H]2C[C@@]3(C)CCC[C@H](C)C3=C[C@H]12` : 0.842

Form field normalized growth, entry `Cc1c(S(=O)(=O)O)oc2c1C(=O)C(=O)c1c-2ccc2c1CCCC2(C)C` : 0.962

Form field normalized growth, entry COc1cc2c(cc1OC)C1Cc3ccc(OC)c(OC)c3CN1CC2 (configuration not stated) : 0.99

Form field normalized growth, entry C[N+]1(C)C2CC(OC(=O)[C@@H](CO)c3ccccc3)CC1C1OC12 (some centres not stated) : 0.933

Form field normalized growth, entry NC(CO)C(=O)NNCc1ccc(O)c(O)c1O (configuration not stated) : 1.03

Form field normalized growth, entry `O=C(O)c1ccccc1-c1c2cc(Br)c(=O)cc-2oc2[c]([Hg])c(O)c(Br)cc12` : 1.03

Form field normalized growth, entry `N[C@@H](CC(=O)N1CCn2c(nnc2C(F)(F)F)C1)Cc1cc(F)c(F)cc1F` : 0.992

Form field normalized growth, entry `C[C@H]1CC[C@@H](C(C)(C)O)CC2=C1CC[C@@H]2C` : 0.991

Form field normalized growth, entry `CN1C(C(=O)Nc2ccccn2)=C(O)c2ccccc2S1(=O)=O` : 0.963

Form field normalized growth, entry O=C1[C@H](CCC(O)c2ccc(F)cc2)[C@@H](c2ccc(O)cc2)N1c1ccc(F)cc1 (some centres not stated) : 0.937

Form field normalized growth, entry `CC(C)[C@@H]1CC[C@@H](C)C[C@H]1O` : 0.997
